Hey, just so you know, these numbers are from ChEMBL document CHEMBL3352381.

# subjectOfTest: Glyceraldehyde-3-phosphate dehydrogenase (Plasmodium falciparum)
# assayProcedure: Inhibition of recombinant Plasmodium falciparum GAPDH expressed in Escherichia coli assessed as ratio of kinact to Ki by Kitz-Wilson double-reciprocal plot
resultType: Ratio (M⁻¹ s⁻¹)
Give just the numeric value; M⁻¹ s⁻¹ need not be written.

molecule	readoutUnits	observedMeasurement
N[C@H](C(=O)OCc1ccccc1)[C@@H]1CC(Br)=NO1	M⁻¹ s⁻¹	6.6
COC(=O)[C@@H](N)[C@@H]1CC(Br)=NO1	M⁻¹ s⁻¹	10.7
N[C@H](C(=O)O)[C@@H]1CC(Br)=NO1	M⁻¹ s⁻¹	0.7

Prompt: Answer with the recorded Ratio of O=C(O)CC1CC(Br)=NO1 (racemic) only.
Completion: 0.7

Prompt: Answer with the recorded Ratio of Oc1ccc(C2CC(Br)=NO2)cc1 (racemic) only.
Completion: 3.1

----------
# subjectOfTest: Glyceraldehyde-3-phosphate dehydrogenase (Plasmodium falciparum) (UniProt Q8T6B1)
# Sequence (Q8T6B1 as listed by the source): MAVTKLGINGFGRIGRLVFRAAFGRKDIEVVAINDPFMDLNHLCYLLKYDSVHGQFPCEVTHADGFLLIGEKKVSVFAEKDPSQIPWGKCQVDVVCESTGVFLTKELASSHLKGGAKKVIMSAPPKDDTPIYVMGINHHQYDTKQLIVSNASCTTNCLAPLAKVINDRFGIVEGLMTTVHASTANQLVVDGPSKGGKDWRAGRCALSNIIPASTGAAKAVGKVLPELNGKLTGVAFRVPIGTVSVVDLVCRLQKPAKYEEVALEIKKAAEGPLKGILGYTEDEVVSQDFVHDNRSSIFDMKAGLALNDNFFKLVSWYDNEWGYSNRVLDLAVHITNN
# assayProcedure: Inhibition of recombinant Plasmodium falciparum GAPDH expressed in Escherichia coli assessed as ratio of kinact to Ki by Kitz-Wilson double-reciprocal plot
resultType: Ratio
Report the figure along with its unit, number first.

Solved cases below.
compound	Ratio
CC(C)(C)OC(=O)NCC1CC(Br)=NO1 (racemic)	2.9 M⁻¹ s⁻¹
O=C(N[C@H](C(=O)O)[C@@H]1CC(Br)=NO1)OCc1ccccc1	2.6 M⁻¹ s⁻¹
CC(C)(C)OC(=O)N1CC2ON=C(Br)C2C1 (racemic)	4.8 M⁻¹ s⁻¹
BrC1=NOC(c2ccncc2)C1 (racemic)	0.47 M⁻¹ s⁻¹

Lab note: next compound to report on.
Prompt: Answer with the recorded Ratio of BrC1=NOC(c2ccccc2)C1 (racemic) only.
Completion: 10.3 M⁻¹ s⁻¹
